Reference for the values: patent US20250250357A1

Biological target: T1, human MSLN-FL-his protein (human, UniProt Q13421 296-580)
T1 construct: made in HEK293E cells, purified on nickel column; also called hMSLN-FL-his; human MSLN full-length protein; not shown: His tag
T1 sequence (Q13421 other isoform, or with tags, fused parts or gaps): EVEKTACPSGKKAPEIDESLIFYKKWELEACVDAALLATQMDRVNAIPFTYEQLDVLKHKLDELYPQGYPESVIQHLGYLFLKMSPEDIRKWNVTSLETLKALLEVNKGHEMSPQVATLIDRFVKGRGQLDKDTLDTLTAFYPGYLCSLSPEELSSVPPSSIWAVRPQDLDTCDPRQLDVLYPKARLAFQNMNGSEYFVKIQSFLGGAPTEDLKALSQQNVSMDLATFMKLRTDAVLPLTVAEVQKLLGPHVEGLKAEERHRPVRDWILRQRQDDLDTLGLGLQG
Assay: competitive ELISA; row Tab108 (R3); note: test concentration or dose not given here
property: competition rate (%)
Hi! Could you send only the number? It should be in %, unit omitted.

Here are 2 binders together with their reported answers.
| binder | unit | competition rate |
| --- | --- | --- |
| S009-F2.23.12 (antibody, human IgG1, kappa, V domains shown, human-murine chimeric antibody, human IgG1/kappa constant regions) VH: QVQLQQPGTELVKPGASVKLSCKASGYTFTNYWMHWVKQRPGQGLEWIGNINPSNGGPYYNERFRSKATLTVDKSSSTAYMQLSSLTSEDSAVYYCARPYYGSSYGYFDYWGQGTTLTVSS VL: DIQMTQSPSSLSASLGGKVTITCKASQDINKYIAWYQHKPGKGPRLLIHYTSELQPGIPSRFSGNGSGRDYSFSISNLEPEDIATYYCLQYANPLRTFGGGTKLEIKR | % | 85 |
| S009-F2.58.8 (antibody, human IgG1, kappa, V domains shown, human-murine chimeric antibody, human IgG1/kappa constant regions) VH: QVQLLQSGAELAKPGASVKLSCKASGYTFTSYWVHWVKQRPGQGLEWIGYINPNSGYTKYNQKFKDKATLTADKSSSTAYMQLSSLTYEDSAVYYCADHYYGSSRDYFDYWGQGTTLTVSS VL: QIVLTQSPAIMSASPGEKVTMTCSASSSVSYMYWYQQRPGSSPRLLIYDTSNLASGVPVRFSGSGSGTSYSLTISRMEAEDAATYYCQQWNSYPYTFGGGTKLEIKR | % | 60 |

Turning now to a further binder:
Value of measured competition rate for the entry S009-F2.16.10 (antibody, human IgG1, kappa, V domains shown, human-murine chimeric antibody, human IgG1/kappa constant regions) VH: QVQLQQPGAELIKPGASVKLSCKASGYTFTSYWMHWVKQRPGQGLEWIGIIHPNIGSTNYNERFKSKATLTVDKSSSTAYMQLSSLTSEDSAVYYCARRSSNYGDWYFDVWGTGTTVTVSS VL: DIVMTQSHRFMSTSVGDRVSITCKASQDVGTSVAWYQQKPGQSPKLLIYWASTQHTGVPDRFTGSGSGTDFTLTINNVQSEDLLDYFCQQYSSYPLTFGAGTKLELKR : -156
